Origin of values: PubChem BioAssay AID1259408

Test system: GENE-TOX genotoxicity assays, various organisms and cells
procedureDetails: GENE-TOX mutagenicity studies
conditionSummary: Species/Cell Type: Hordeum vulgare (barley); Assay Type: Chromosome aberrations; Assay Code: HOC+; Evaluation Type: Evaluation A (Pre-1980)
Active and inactive are the calls of the source. The rule behind the calls is not given here.
propertyLabel: mutagenic call

| molecule | systemTested | propertyLabel | reportedResult |
| --- | --- | --- | --- |
| CCNc1nc(Cl)nc(NC(C)C)n1 | GENE-TOX genotoxicity assays, various organisms and cells | mutagenic call | active; positive |
| CN(N=O)C(N)=O | GENE-TOX genotoxicity assays, various organisms and cells | mutagenic call | active; positive |
| C1OC1C1CO1 (stereo not drawn) | GENE-TOX genotoxicity assays, various organisms and cells | mutagenic call | active; positive |
| COS(C)(=O)=O | GENE-TOX genotoxicity assays, various organisms and cells | mutagenic call | active; positive |
| CN1CCN(CCCN2c3ccccc3Sc3ccc(C(F)(F)F)cc32)CC1 | GENE-TOX genotoxicity assays, various organisms and cells | mutagenic call | active; positive |
| O=C(O)c1cc(I)cc(I)c1I | GENE-TOX genotoxicity assays, various organisms and cells | mutagenic call | active; positive |
| CC1CN1P(=O)(N1CC1C)N1CC1C (stereo not drawn) | GENE-TOX genotoxicity assays, various organisms and cells | mutagenic call | active; positive |
| CON(C)C(=O)Nc1ccc(Cl)c(Cl)c1 | GENE-TOX genotoxicity assays, various organisms and cells | mutagenic call | active; positive |
| Nc1c(Cl)cc([N+](=O)[O-])cc1Cl | GENE-TOX genotoxicity assays, various organisms and cells | mutagenic call | active; positive |
| CCCOS(C)(=O)=O | GENE-TOX genotoxicity assays, various organisms and cells | mutagenic call | active; positive |
| CCS(=O)(=O)OC | GENE-TOX genotoxicity assays, various organisms and cells | mutagenic call | active; positive |
| O=C(O)c1ccccc1C(=O)Nc1cccc2ccccc12 | GENE-TOX genotoxicity assays, various organisms and cells | mutagenic call | active; positive |
| COc1c(Cl)ccc(Cl)c1C(=O)O | GENE-TOX genotoxicity assays, various organisms and cells | mutagenic call | active; positive |
| Nc1ncn[nH]1 | GENE-TOX genotoxicity assays, various organisms and cells | mutagenic call | active; positive |
| C[n+]1ccc(-c2cc[n+](C)cc2)cc1 | GENE-TOX genotoxicity assays, various organisms and cells | mutagenic call | active; positive |
| O=c1ccc(=O)[nH][nH]1 | GENE-TOX genotoxicity assays, various organisms and cells | mutagenic call | active; positive |
| O=C(CCCCCCCCC(=O)N1CC1)N1CC1 | GENE-TOX genotoxicity assays, various organisms and cells | mutagenic call | active; positive |
| CN(C)C(=O)Nc1ccc(Cl)cc1 | GENE-TOX genotoxicity assays, various organisms and cells | mutagenic call | active; positive |
| CCN(N=O)C(N)=O | GENE-TOX genotoxicity assays, various organisms and cells | mutagenic call | active; positive |
| CC(C)OC(=O)Nc1cccc(Cl)c1 | GENE-TOX genotoxicity assays, various organisms and cells | mutagenic call | active; positive |
| CCOC(=O)CC(SP(=S)(OC)OC)C(=O)OCC (stereo not drawn) (tested in a mixture with another compound) | GENE-TOX genotoxicity assays, various organisms and cells | mutagenic call | active; positive |
| NC=O | GENE-TOX genotoxicity assays, various organisms and cells | mutagenic call | active; positive |
| CCN(CC)C(=O)[C@@H]1C=C2c3cccc4[nH]cc(c34)C[C@H]2N(C)C1 | GENE-TOX genotoxicity assays, various organisms and cells | mutagenic call | active; positive |
